FYI, the data here is from paper PMC10814725.

- protocol: Cell viability by CCK-8, HEK-Blue hTLR4 cells
- Assay type: cell-based
- experimentalContext: human, Viability Cell (%) HEK-Blue hTLR4 Without LPS
readoutLabel: viability at 18 h, 20 µM

Value of viability at 18 h, 20 µM reported for the compound C[C@]12C3=CC[C@@H](C4=CC(O)OC4=O)[C@]3(C)CC[C@@H]1[C@@]1(C)C(=O)C=C[C@@]3(C)CO[C@@H]([C@H]2O)[C@H]13 (stereo partly drawn) is > 99.9%

Value of viability at 18 h, 20 µM reported for the compound CC(=O)O[C@@H]1C[C@]2(C)C(=CC[C@H]2c2ccoc2)[C@@]2(C)[C@H]1[C@@]1(C)C=CC(=O)C(C)(C)[C@@H]1C[C@H]2OC(C)=O is 52.6%

Value of viability at 18 h, 20 µM reported for the compound CC(=O)O[C@H]1[C@@H](OC(C)=O)[C@]2(C)[C@H](CC[C@@]3(C)[C@H](c4ccoc4)C[C@H]4O[C@@]423)[C@@]2(C)C=CC(=O)C(C)(C)[C@H]12 is > 99.9%

* * *

- protocol: Cell viability by CCK-8, HEK-Blue hTLR4 cells
- Assay type: cell-based
- experimentalContext: human, 20 µM, 18 h, without LPS; read-out: Viability Cell (%) HEK-Blue hTLR4 Without LPS
readoutLabel: viability at 18 h, 20 µM (%)
Field: numeric (%). Do not append units.

Value of viability at 18 h, 20 µM reported for the compound CC(=O)O[C@H]1[C@@H](OC(C)=O)[C@@]2(C)C3=CC[C@@H](C4=CCOC4=O)[C@]3(C)CC[C@@H]2[C@@]2(C)C=CC(=O)C(C)(C)[C@H]12 [Compound 6, lasiocarpine A] is 77.1

* * *

- protocol: Cell viability by CCK-8, HEK-Blue hTLR4 cells
- Format: cell-based
- experimentalContext: human, Viability Cell (%) HEK-Blue hTLR4 LPS-Induced (10 ng/mL)
readoutLabel: viability at 18 h, 20 µM

Here is how some molecules turned out for viability at 18 h, 20 µM.
molecule	viability at 18 h, 20 µM
CC1(C)C(=O)C=C[C@]2(C)[C@H]3CC[C@]4(C)C(=CC[C@H]4C4CCOC4=O)[C@]3(C)[C@H](O)C[C@@H]12 (some centres unmarked) [Compound 16, pentandricine C]	> 99.9%
CC1(C)C(=O)C=CC2(C)C1=C(O)C(=O)C1(C)C2(O)C(O)CC2(C)C(c3ccoc3)CC3OC321 (centres unmarked) [Compound 17, pentandricine G]	64.2%
CC(=O)O[C@H]1[C@@H](O)[C@@]2(C)C3=CC[C@@H](c4ccoc4)[C@]3(C)CC[C@@H]2[C@@]2(C)C=CC(=O)C(C)(C)[C@H]12 [Compound 3, 6α-O-acetyl-7-deacetylnimocinol]	6.79%
CC(=O)O[C@H]1[C@@H](OC(C)=O)[C@@]2(C)C3C(=O)C[C@@H](c4ccoc4)[C@]3(C)CC[C@@H]2[C@@]2(C)C=CC(=O)C(C)(C)[C@H]12 (some centres unmarked) [Compound 7, toonaciliatone F]	87.3%

From here, focus on the item given below.
Value of viability at 18 h, 20 µM reported for the molecule CC(=O)O[C@@H]1C[C@H]2C(C)(C)C(=O)C=C[C@]2(C)[C@H]2CC[C@]3(C)C(=CC[C@H]3C3CCOC3=O)[C@@]21C (some centres unmarked) [Compound 15, pentandricine B] is 84.4%
